# study.target: T1, Human SIRPαV2 (CAA71403.1), Extracellular Domain + His-Tag (human, UniProt P78324 31-373)
# T1 construct: also called huSIRPαV2; hSIRPαV2; not shown: His-Tag
# T1 sequence (P78324 other isoform, or with tags, fused parts or gaps): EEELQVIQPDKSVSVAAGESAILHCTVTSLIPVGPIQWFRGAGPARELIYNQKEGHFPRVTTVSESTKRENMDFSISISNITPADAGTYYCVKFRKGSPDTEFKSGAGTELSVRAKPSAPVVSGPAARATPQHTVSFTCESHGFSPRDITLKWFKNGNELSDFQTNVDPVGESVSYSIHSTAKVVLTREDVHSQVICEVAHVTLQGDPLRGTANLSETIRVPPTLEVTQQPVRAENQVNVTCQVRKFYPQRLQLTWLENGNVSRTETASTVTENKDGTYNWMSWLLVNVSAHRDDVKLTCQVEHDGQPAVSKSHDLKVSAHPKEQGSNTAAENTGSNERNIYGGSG
# method.notes: SPR, antibody captured on Protein A/G, ECD-His analyte, 1:1 fit
Known log10(Kd) of a selection of binders
quantity: log10(Kd) (log10 of the value in nM)

>>> numeric_value("Antibody A1 (antibody, human IgG1, kappa, L234A L235A, V domains shown) VH: EVQLVESGGGLVQPGGSLRLSCAASGFTLSSYDMHWVRQAPGKGLEWVSAIGTAGDTYYTGSVKGRFTISRENAKNSLYLQMNSLRADDTAVYYCVRGGVWDDAFDIWGQGTMVTVSS VL: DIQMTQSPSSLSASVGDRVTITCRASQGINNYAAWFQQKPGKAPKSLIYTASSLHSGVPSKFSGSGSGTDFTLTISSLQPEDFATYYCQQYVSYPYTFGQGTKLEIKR")
1.27
>>> numeric_value("Antibody A3 (antibody, human IgG1, kappa, L234A L235A, V domains shown) VH: EVQLVESGGGLVQPGGSLRLSCAASGFTLSSYDMHWVRQATGKGLEWVSAIGTAGDTYYTGSVKGRFTISRENAKNSLYLQMNSLRASDTAVYYCVRGGVWDDAFDIWGQGTMVTVSS VL: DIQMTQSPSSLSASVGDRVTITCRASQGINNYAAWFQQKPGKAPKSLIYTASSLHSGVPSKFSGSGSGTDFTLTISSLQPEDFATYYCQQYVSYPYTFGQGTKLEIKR")
1.29
>>> numeric_value("Antibody A2 (antibody, human IgG1, kappa, L234A L235A, V domains shown) VH: EVQLVESGGGLVQPGGSLRLSCAASGFTLSSYDMHWVRQATGKGLEWVSAIGTAGDTYYTGSVKGRFTISRENAKNSLYLQMNSLRAADTAVYYCVRGGVWDDAFDIWGQGTMVTVSS VL: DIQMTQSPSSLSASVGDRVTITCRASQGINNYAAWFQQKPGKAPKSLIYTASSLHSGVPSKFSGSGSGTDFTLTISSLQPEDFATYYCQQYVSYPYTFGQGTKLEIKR")
1.32
>>> numeric_value("Antibody E2 (antibody, human IgG1, kappa, L234A L235A, V domains shown) VH: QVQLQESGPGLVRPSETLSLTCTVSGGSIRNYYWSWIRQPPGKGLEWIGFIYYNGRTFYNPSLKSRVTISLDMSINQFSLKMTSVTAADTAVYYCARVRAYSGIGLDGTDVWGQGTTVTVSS VL: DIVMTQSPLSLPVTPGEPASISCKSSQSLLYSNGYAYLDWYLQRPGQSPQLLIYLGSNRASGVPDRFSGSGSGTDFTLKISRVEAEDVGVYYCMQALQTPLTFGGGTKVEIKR")
-0.16
>>> numeric_value("Antibody A5 (antibody, human IgG1, kappa, L234A L235A, V domains shown) VH: EVQLVESGGGLVQPGGSLRLSCAASGFTLSSYDMHWVRQAPGKGLEWVSAIGTAGDTYYTGSVKGRFTISRENAKNSLYLQMNSLRASDTAVYYCVRGGVWDDAFDIWGQGTMVTVSS VL: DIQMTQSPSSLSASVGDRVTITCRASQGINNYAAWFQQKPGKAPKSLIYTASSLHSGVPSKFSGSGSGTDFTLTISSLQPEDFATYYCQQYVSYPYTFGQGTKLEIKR")
1.25
